experiment: Human HepG2 cell viability assay in 384 well format; format: toxicity, cell-based; set-up: dose 125 nL, time 70.5 hour; concentration not given beside the values; settings: HepG2 cells, read-out: Inhibition
OUTCOME_MEASURE: cytotoxicity at 70.5 h (%)

MOLECULE	NUMBER
O=C(O)c1nnn(Cc2cccc(C(F)(F)F)c2)c1-c1ccccn1	-7.66
CN1[C@H](CO)C[C@H](CNCc2ccc(CO)o2)[C@@H]1c1ccccc1F	-4.51
Cc1ncsc1CCN(C)Cc1ccc(Br)o1	9.94
COc1ccc(S(=O)(=O)N2CCN(C)c3ncccc3C2)cc1	-5.97
O=C(c1cc(F)ccc1F)C1CCN(C(=O)c2ccc(=O)[nH]n2)CC1	-9.24
CCC1=N[C@@]2(CC[C@@H]3CN(Cc4ccccc4C)C[C@@H]32)C(=O)N1C	0.166
Cc1nc(C)n(CC2CN(CCc3ccccc3Cl)CCO2)n1 (stereo unspecified)	39.5
Cc1cc(C2CCCN(CC(=O)N3CCc4ccccc43)C2)n[nH]1 (stereo unspecified)	-6.5
Cc1nc(N2CCCC2)nc(C)c1NS(=O)(=O)c1ccccc1F	-1.28
CCC(O)CNC(=O)c1cc(COc2ccc(OC)cc2Cl)[nH]n1 (stereo unspecified)	-1.08
Cc1cnc(C(=O)N2C[C@@H]3CN(CC4CCCC4)CCO[C@@H]3C2)cn1	25.7
